Assay: BSK_BE3C_SRB: Viability Assessment in the BioMAP Diversity Plus: BE3C Assay (AID 2283028);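 note: measured 24 h after chemical dosing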
Settings: primary human bronchial epithelial cells
Calls of active or inactive are those of the source. Rule for the calls: active = hit-call score of the fitted dose curve at least 0.9, where 1 is the maximum; inactive = score below 0.9.
Hello, when you answer, please use one of the following outcomes: TRUE (active), FALSE (inactive)

### Prompt For "CC(=O)c1c(C)c([N+](=O)[O-])c(C(C)(C)C)c([N+](=O)[O-])c1C" , which call appears in the assay record?
### Response FALSE

### Prompt I'd appreciate the recorded outcome for "CCOC(=O)C(C#N)=C(c1ccccc1)c1ccccc1" from this test.
### Response FALSE

### Prompt Please let me know the test result on file for "C=C(C)C(=O)OCC(CC)(COC(=O)C(=C)C)COC(=O)C(=C)C" .
### Response FALSE

Others:
### Prompt Dear all, I need the recorded test outcome for CC(=O)C1(C)CC2=C(CCCC2(C)C)CC1C (stereo unspecified) , thank you.
### Response TRUE

Cited source: PubChem BioAssay (EPA / NIEHS)
